Tested on: E.cloacae C4008
Experiment: In vitro antibacterial activity, minimum inhibitory concentration
Format: cell-based
Settings: Enterobacter cloacae; E.cloacae C4008; read-out: Minimum Inhibitory Concentration (MIC)
readoutLabel: MIC (µg/mL)

Solved entries (count: 2):
# get_value(readout= MIC, system= E.cloacae C4008) for CO/N=C(\C(=O)N[C@@H]1C(=O)N2C(C(=O)[O-])=C(C[n+]3ccc4[nH]c(=NC#N)[nH]c4c3)CS[C@H]12)c1nsc(N)n1 [Ex. 4]
0.05

Form: Entry = Nc1nc(/C(=N/OCC(=O)O)C(=O)N[C@@H]2C(=O)N3C(C(=O)[O-])=C(C[n+]4ccc5[nH]c(=O)[nH]c5c4)CS[C@H]23)ns1 [Ex. 8] | System = E.cloacae C4008 | MIC = ____
0.013

A: Nc1nc(/C(=N/OCF)C(=O)N[C@@H]2C(=O)N3C(C(=O)[O-])=C(C[n+]4ccc5[nH]c(=O)[nH]c5c4)CS[C@H]23)ns1 [Ex. 9]
B: CO/N=C(\C(=O)N[C@@H]1C(=O)N2C(C(=O)O)=C(COC(C)=O)CS[C@H]12)c1csc(N)n1 [CTX, Cefotaxime, reference compound]
C: CO/N=C(\C(=O)N[C@@H]1C(=O)N2C(C(=O)[O-])=C(C[n+]3ccc4c(c3)NC(=C[N+](=O)[O-])N4)CS[C@H]12)c1nsc(N)n1 [Ex. 2]
Put the entries in order of MIC, starting with the largest number. Return value: ordered labels per request.
C, B, A
(C: 0.05 µg/mL, B: 0.025 µg/mL, A: 0.013 µg/mL)
